System: OVCAR-3 ovarian
Experiment: NCI-60 one-dose screen, 48 h (100 = growth as untreated, 0 = no growth, -100 = all killed)
Conditions: 10 µM unless noted
Description: Growth inhibition of the OVCAR-3 human tumor cell line is measured as a screen for anti-cancer activity. Cells are grown in 96 well plates and exposed to the test compound for 48 hours. Compounds are tested at a single concentration, which is 10^-5 M for most compounds. The reported endpoint is percent growth (GI% or GIPRCNT), where numbers from 0 - 100% represent growth inhibition, and numbers from -100% - 0 represent cell death. For example, a value of 40 represents 60% growth inhibition. […]
About 83,000 compounds went through this panel and 20% of them were active in at least one assay; those are over-represented in the sample as a whole.
This section presents compounds with their documented growth values.
measure name: growth (%)

INSERT INTO assay_data (compound, measure_name, recorded_measurement) VALUES
  ('Cc1cc(=O)oc2cc(OC(=O)CN3CCN(C)CC3)ccc12', 'growth', 105),
  ('COc1ccc(C(=O)COC(=O)[C@H](C[Se][Se]C[C@H](NC(=O)c2ccc(Br)cc2F)C(=O)OCC(=O)c2ccc(OC)cc2)NC(=O)c2ccc(Br)cc2F)cc1', 'growth', -86.3),
  ('CS(=O)(=O)Nc1cc(-c2ccc3ncnc(Nc4cccc(Cl)c4F)c3c2)cnc1Cl', 'growth', 25),
  ('CC(=O)OC[C@H]1OC(Sc2sc(C(=O)c3ccc(C)cc3)c(N)c2-c2nc3ccccc3s2)[C@H](OC(C)=O)[C@@H](OC(C)=O)[C@@H]1OC(C)=O (some centres undefined)', 'growth', 59.4),
  ('CC1Cc2c(ncn3c(-c4ccc(F)cc4)nnc23)N(C)c2ccccc21 (centres undefined)', 'growth', 6.26),
  ('Cc1nc(NC(=O)COc2ccc(/C=C3\Cc4ccc(Cl)cc4C3=O)cc2)sc1C', 'growth', 105),
  ('COc1cc(C(=O)/C=C/c2c(Cl)nc3sccn23)cc(OC)c1OC', 'growth', 64.5),
  ('CCN(CC)Cc1cc(Nc2c3ccc(Cl)cc3nc3ccc(OC)cc23)ccc1O', 'growth', 56.6),
  ('C/C(=C\C(=O)c1ccc(Cl)cc1)c1ccc(Cl)cc1', 'growth', 99.2);
